Data provenance is patent US9132200B2.

Target: calcium channel (Rattus norvegicus, UniProt P22002)
Sequence (P22002 whole entry): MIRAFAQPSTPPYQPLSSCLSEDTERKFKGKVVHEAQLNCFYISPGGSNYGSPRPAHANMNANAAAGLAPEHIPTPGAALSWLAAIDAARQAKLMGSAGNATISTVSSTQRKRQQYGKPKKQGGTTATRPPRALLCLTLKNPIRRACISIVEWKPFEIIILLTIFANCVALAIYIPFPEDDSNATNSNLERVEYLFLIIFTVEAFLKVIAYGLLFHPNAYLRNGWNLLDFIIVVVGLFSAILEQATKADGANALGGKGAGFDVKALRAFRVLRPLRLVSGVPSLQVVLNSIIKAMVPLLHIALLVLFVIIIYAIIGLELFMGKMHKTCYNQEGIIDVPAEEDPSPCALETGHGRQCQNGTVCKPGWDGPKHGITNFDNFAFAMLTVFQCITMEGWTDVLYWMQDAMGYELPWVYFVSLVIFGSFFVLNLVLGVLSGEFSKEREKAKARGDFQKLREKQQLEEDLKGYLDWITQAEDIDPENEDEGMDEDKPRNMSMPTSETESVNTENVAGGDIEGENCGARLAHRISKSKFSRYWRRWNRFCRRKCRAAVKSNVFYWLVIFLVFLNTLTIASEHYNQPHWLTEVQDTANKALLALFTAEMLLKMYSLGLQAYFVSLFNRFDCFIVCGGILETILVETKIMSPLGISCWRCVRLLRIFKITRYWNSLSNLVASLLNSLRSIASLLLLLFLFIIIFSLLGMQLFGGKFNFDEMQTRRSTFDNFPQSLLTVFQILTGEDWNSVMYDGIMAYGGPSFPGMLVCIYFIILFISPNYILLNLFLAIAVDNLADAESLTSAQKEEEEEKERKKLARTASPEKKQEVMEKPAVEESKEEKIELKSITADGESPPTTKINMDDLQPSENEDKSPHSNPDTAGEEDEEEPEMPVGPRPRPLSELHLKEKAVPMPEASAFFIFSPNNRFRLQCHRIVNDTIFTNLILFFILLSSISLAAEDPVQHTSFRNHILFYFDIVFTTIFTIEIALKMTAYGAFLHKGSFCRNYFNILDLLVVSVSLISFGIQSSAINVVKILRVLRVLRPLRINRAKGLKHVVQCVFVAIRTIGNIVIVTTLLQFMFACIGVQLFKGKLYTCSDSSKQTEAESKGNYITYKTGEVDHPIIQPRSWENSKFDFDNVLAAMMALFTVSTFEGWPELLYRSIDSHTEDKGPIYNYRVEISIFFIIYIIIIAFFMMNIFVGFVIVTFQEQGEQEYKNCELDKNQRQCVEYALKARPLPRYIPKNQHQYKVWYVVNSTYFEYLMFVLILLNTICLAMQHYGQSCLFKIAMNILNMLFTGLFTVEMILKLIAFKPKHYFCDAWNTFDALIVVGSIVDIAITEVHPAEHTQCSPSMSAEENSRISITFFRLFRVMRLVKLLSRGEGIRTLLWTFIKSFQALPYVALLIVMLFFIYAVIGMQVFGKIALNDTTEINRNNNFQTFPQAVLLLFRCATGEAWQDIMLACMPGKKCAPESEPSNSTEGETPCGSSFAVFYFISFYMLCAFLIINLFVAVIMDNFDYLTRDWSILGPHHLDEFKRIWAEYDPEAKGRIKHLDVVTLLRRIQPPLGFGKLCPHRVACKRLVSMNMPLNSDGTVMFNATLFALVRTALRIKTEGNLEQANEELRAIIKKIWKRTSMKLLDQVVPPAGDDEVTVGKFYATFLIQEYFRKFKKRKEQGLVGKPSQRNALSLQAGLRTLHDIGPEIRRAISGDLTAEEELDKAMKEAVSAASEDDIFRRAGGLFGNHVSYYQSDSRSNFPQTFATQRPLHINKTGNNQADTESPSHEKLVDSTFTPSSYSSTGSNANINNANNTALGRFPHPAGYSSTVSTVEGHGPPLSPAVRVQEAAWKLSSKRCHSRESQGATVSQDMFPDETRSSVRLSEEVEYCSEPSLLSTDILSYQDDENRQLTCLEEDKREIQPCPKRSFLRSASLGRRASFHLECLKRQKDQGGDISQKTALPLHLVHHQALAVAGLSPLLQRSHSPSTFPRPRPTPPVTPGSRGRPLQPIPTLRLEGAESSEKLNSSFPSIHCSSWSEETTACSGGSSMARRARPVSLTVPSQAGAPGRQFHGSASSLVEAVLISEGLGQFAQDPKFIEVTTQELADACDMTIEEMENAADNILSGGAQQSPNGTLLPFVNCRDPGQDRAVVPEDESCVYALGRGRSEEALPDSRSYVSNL
Assay: Calcium channel binding assay similar to Example 3, 3[H]-diltiazem as competing radioligand
Conditions: Binding Assay No. 2 (Table 2); 3[H]-diltiazem radioligand
Protocol: […] […] The reactions were carried out in 50 mM TRIS-HCl (pH 7.7) at 25° C. for 60 minutes. The reaction was terminated by rapid vacuum filtration onto glass fiber filters. […] Molecular Pharmacology 25, 235-241 (1984)).
metric: pIC50
Scale note: pIC50 = -log10(concentration in M).

Below, 2 compounds whose answers are already recorded.
compound	study.system	pIC50
COCCOCCOCCOc1ccc(CCN(C)CCCC(C#N)(c2ccc(OC)c(OC)c2)C(C)C)cc1OC (stereo not drawn) [mPEG3-O-Verapamil, O-mPEG3-verapamil]	calcium channel (Rattus norvegicus, UniProt P22002)	6.27
COCCOCCOCCOCCOCCOc1ccc(CCN(C)CCCC(C#N)(c2ccc(OC)c(OC)c2)C(C)C)cc1OC (stereo not drawn) [mPEG5-O-Verapamil, O-mPEG5-verapamil]	calcium channel (Rattus norvegicus, UniProt P22002)	6.07

// moving on: another record for pIC50
Considering COCCOCCOCCOCCOCCOCCOCCOc1ccc(CCN(C)CCCC(C#N)(c2ccc(OC)c(OC)c2)C(C)C)cc1OC (stereo not drawn) [mPEG7-O-Verapamil, O-mPEG7-verapamil] , its pIC50 with calcium channel (Rattus norvegicus, UniProt P22002) was recorded as 5.95

* * *

molecular target: calcium channel (Rattus norvegicus); test: Calcium channel binding assay similar to Example 3, 3[H]-diltiazem as competing radioligand
metric: IC50 (nM)
Quick note: give the figure in nM, leave out the unit.

GET /value?item= COCCOCCOCCOCCOCCOCCOc1ccc(CCN(C)CCCC(C#N)(c2ccc(OC)c(OC)c2)C(C)C)cc1OC (stereo not shown) &field=IC50 returns 349
